Test system: RPMI-8226 leukemia
Assay: NCI tumour cell line growth inhibition, 48 h

record-smiles	limit-sign	TGI / µM
Cn1c2ccccc2c(=NNc2cccc(C(=O)O)c2)c2ccccc21	=	28.3
CCOc1cc(C(C)(C)C)ccc1C1=N[C@@](C)(c2ccc(Cl)cc2)[C@@](C)(c2ccc(Cl)cc2)N1C(=O)N1CCN(CCCS(C)(=O)=O)CC1	>	100
Cc1c(C(=O)/C=C/c2ccccc2)[n+](=O)c2ccccc2n1[O-]	=	45.9
CCn1c(-c2ccc(OC(C)=O)cc2)c(C)c2cc(OC(C)=O)ccc21	=	42.6

====

Tested on: DMS 273 small cell lung
Experiment: NCI tumour cell line growth inhibition, 48 h

compound	system-name	TGI
CC(=O)O[C@]12CCCCCC1C1(O)C(O)CCCC[C@H]12 (stereo partly drawn)	DMS 273 small cell lung	> 100 µM
Cc1c(C(=O)/C=C/c2ccccc2)[n+](=O)c2ccccc2n1[O-]	DMS 273 small cell lung	30.1 µM
C1C[OH+]CC[OH+]CC[OH+]CC[OH+]CC[OH+]1.[Cl-].[V]	DMS 273 small cell lung	> 100 µM
C=C1C(=O)OC2/C=C(\COC(C)=O)CCC(OC(C)=O)C3=CC(OC3=O)C12 (stereo not drawn)	DMS 273 small cell lung	21.7 µM
N#CC1CC2(C1)OCCS2 (stereo not drawn)	DMS 273 small cell lung	> 100 µM
C=CC/C=C/C/C=C/CCCCCCCc1cccc(O)c1C(=O)O	DMS 273 small cell lung	> 100 µM
Cc1ccc(S(=O)(=O)C(C#N)c2nc3ccccc3nc2-n2ccnc2)cc1 (stereo not drawn)	DMS 273 small cell lung	> 100 µM
C/C(CC(=O)NCCc1ccccc1)=N\NC(=O)C[n+]1ccccc1	DMS 273 small cell lung	> 100 µM
CN(C)c1cc[c]([Sn]([c]2ccc(N(C)C)cc2)([c]2ccc(N(C)C)cc2)[c]2ccc(N(C)C)cc2)cc1	DMS 273 small cell lung	16.4 µM
O=C1NC2OC(C(O)CO)C(O)C2O1 (stereo not drawn)	DMS 273 small cell lung	> 100 µM
C=CCc1ccc(Oc2cc(CC=C)c3c(c2O)O[C@@H](CO)[C@H]3c2ccc(O)c(-c3cc(CC=C)ccc3O)c2)cc1	DMS 273 small cell lung	> 100 µM
O=C1CCCC[C@H]1[C@H]1CCC[C@@H]([C@H]2CCCCC2=O)C1=O	DMS 273 small cell lung	> 100 µM
COc1c(C(C)C)cc2c3c1OC(=O)[C@@]31CCCC(C)(C)C1CC2 (stereo partly drawn)	DMS 273 small cell lung	> 100 µM
COc1cc2c3c(c1OC)C1(C=CC(=O)C=C1)C[C@H]3N(C)CC2	DMS 273 small cell lung	> 100 µM
O=C1CSC(/C(=N/Nc2ccccc2)c2nc3ccccc3[nH]2)=N1	DMS 273 small cell lung	47.3 µM
Nc1ccc2cc3ccc(N)cc3nc2c1	DMS 273 small cell lung	3.33 µM
O=C(CN(c1ccccc1)c1ccccc1)n1nnc2ccccc21	DMS 273 small cell lung	> 100 µM
CCCCCCCCCCCC(=O)OCC1OC(OC)C(NC(=O)N(CCCl)N=O)C(O)C1O (stereo not drawn)	DMS 273 small cell lung	30.6 µM

====

As shown below, each of these molecules has a reported TGI value.
Tested on: A549 NSCLC
Assay: NCI tumour cell line growth inhibition, 48 h

molecule	TGI
Nc1ccc(-c2nc3ccc(Cc4ccc5nc(-c6ccc(N)cc6)[nH]c5c4)cc3[nH]2)cc1	57.7 µM
CC(C)NC(=O)OCCN=c1c2ccccc2ccc2ccccc12	> 100 µM
O=c1oc2ccc([N+](=O)[O-])cc2c(Nc2ccc3c(c2)Oc2ccccc2O3)c1[N+](=O)[O-]	> 100 µM
CCN1CCC(O)(/C=C/c2ccc(C)cc2C)C(C(=O)/C=C/c2ccc(C)cc2C)C1 (stereo not given)	11.1 µM
COC(=O)C1CCCN1C(=O)C(Cc1cn(S(=O)(=O)c2ccc(C)cc2)cn1)NC(=O)OC(C)(C)C (stereo not given)	> 100 µM

====

Listed next: entries and their corresponding TGI.
System: SF-295 CNS
Assay: NCI tumour cell line growth inhibition, 48 h
reported-metric: TGI (µM)

compound	unit-name	limit-sign	reported-value
O=C1O[C@H](c2ccc3c(c2)OCO3)[C@H]2CO[C@@H](c3ccc4c(c3)OCO4)[C@@H]12	µM	>	100
Cc1ccc(-c2nc3ccc(Cl)cc3c(=O)n2N2C(=O)CSC2c2ccccc2Cl)cc1 (stereo not given)	µM	>	100
O=c1c2ccccc2c(=O)c2c1[nH]c1c(-c3ccccc3)c(-c3ccccc3)c(=O)c12	µM	=	6.24
CN(C)c1cc[c]([Sn]([c]2ccc(N(C)C)cc2)([c]2ccc(N(C)C)cc2)[c]2ccc(N(C)C)cc2)cc1	µM	=	25.7
On1c(-c2ccccc2)nc2ccccc2c1=S	µM	>	100

====

Tested on: SW-620 colon
Assay: NCI tumour cell line growth inhibition, 48 h
reported-metric: TGI (µM)

compound	system-name	unit-name	limit-sign	reported-value
CN(CCC#N)c1ccc(/C=C(\C#N)c2ccc(Br)cc2)cc1	SW-620 colon	µM	>	100
ClCc1cccc(Cn2cnc3nc(Cl)nc(Cl)c32)c1	SW-620 colon	µM	=	1.67
CC(C)=CCNc1ncnc2c1ncn2CCC#N	SW-620 colon	µM	>	100
Cc1ncc(CCCN(C)C)cc1Nc1ncc2c(n1)-c1ccc(C(F)(F)F)cc1NC(=S)C2	SW-620 colon	µM	=	12.3
Cc1cc(NCc2ccccc2)c2ccccc2[n+]1CCCCCCCCCC[n+]1c(C)cc(NCc2ccccc2)c2ccccc21	SW-620 colon	µM	=	4.31
CC(C)NC(=O)OCCN=c1c2ccccc2ccc2ccccc12	SW-620 colon	µM	>	100
CC(=O)NC1c2ccccc2C(C)(C)C12CCC1(CC2)OCCO1 (stereo not given)	SW-620 colon	µM	>	100
C=CCc1ccc(Oc2cc(CC=C)c3c(c2O)O[C@@H](CO)[C@H]3c2ccc(O)c(-c3cc(CC=C)ccc3O)c2)cc1	SW-620 colon	µM	>	100
CCCCCCCCCCCC(=O)OCC1OC(OC)C(NC(=O)N(CCCl)N=O)C(O)C1O (stereo not given)	SW-620 colon	µM	=	24.5
C=CCOc1ccc(C2(O)c3ccccc3C3=NCCCN32)cc1 (stereo not given)	SW-620 colon	µM	>	100

====

System: SK-MEL-5 melanoma
Assay: NCI tumour cell line growth inhibition, 48 h

compound	TGI
O=C(O)c1ccc(OCc2nc3cc(C(F)(F)F)ccc3nc2-c2ccccc2)cc1	> 100 µM
O=C1/C(=C/c2ccc(Cl)cc2)CSc2ccccc21	46 µM
C1CCC([PH+](C2CCCCC2)C2CCCCC2[PH+](C2CCCCC2)C2CCCCC2)CC1.O=C(C1[CH-]CCCC1)C1CCCC[N-]1.[Au] (stereo not drawn)	0.661 µM
O=C1NC(=O)C(CC2CCCCCCCCCCC2=O)C(=O)N1 (stereo not drawn)	> 100 µM
COC1C=COC2(C)Oc3c(C)c(O)c4c(O)c(c(C5SCCS5)c(O)c4c3C2=O)NC(=O)C(C)=C/C=C\C(C)C2OC(C)(C)OC(C2C)C(C)C(OC(C)=O)C1C (stereo not drawn)	15.5 µM
CN1COCc2c1ccc1cc3ccc4c(c3nc21)COCN4S(C)(=O)=O	> 100 µM
COc1cccc2c(=O)c3c(sc12)c(N1CCNCC1)nc1ccccc13	3.09 µM
O=C1CSC(c2ccc(Cl)cc2Cl)N1c1ccc(F)cc1 (stereo not drawn)	39.8 µM
CC(=O)OCC1OC(n2c3c(cc(C#N)c2=S)CCCCC3)C(OC(C)=O)C(OC(C)=O)C1OC(C)=O (stereo not drawn)	> 100 µM
O=C1c2ccccc2C2(c3ccc(Cl)cc3)N[C@H]3CCCC[C@@H]3N12 (stereo partly drawn)	> 100 µM
O=C1CSC(/C(=N/Nc2ccccc2)c2nc3ccccc3[nH]2)=N1	> 100 µM
COc1nc2nccnc2c(=O)n1C	> 10 µM
Nc1nc(F)nc2c1ncn2C1OC(CO)C(O)C1O (stereo not drawn)	> 100 µM
COc1c(CCl)cc(-c2cc(=O)c3ccccc3s2)cc1CCl	> 100 µM
COc1ccc2c(c1)CCN1CCc3ccccc3CC21 (stereo not drawn)	30.2 µM
COc1ccc(C2OC(c3ccncc3)=NN2C)cc1OC (stereo not drawn)	> 100 µM
CC(=O)O[C@H]1CC[C@@]2(C)C(=CC[C@H]3[C@@H]4C[C@H](N5CCOCC5)[C@H](OC(C)=O)[C@@]4(C)CC[C@@H]32)C1	> 100 µM
CCCSc1nc(COC(=O)NC)c(COC(=O)NC)n1C	> 100 µM
CC1CCCC(CC(=O)O)(CC(=O)O)C1 (stereo not drawn)	> 100 µM
CCN(CC)c1ccc(N=Nc2ccc(-c3nc4ccc[n+](C)c4s3)cc2)cc1	33.9 µM
C[C@]12CC[C@@H]3c4cc(OCC(F)(F)F)c(O)cc4/C(=N/O)C[C@H]3[C@@H]1CC[C@@H]2O	12.5 µM
CC1=C(C(=O)Nc2ccc(F)c(Cl)c2)C(c2cccc(O)c2)NC(=O)N1 (stereo not drawn)	> 100 µM
O=C1C(=Cc2ccccc2O)N=C(c2ccccc2)N1n1c(-c2ccccc2)nc2ccccc2c1=O	41.7 µM
CCOC(=O)NC(Nc1cccc(C(F)(F)F)c1)(C(F)(F)F)C(F)(F)F	> 100 µM
CC(C)=CCNc1ncnc2c1ncn2CCC#N	> 100 µM
CC1=NNC(=O)C1C(CC(=O)c1c[nH]c2ccccc12)C(=O)O (stereo not drawn)	> 100 µM
CC(C)(C[C@H]1CN(S(=O)(=O)c2cccc(C(F)(F)F)c2)c2cc(-c3cc(F)cc(OC(F)F)c3)ccc2O1)C(=O)O	14.9 µM
COc1cc2[nH]c(C(=O)c3cc(OC)c(OC)c(OC)c3)c(N)c2cc1C#CC1CC1	22.4 µM
Br[C](Br)(Br)[Hg][c]1ccccc1	24.8 µM
ClCC[N+]12CC[N+](CCCl)(CC1)C2	> 100 µM
COc1cc2c3c(c1OC)C1(C=CC(=O)C=C1)C[C@H]3N(C)CC2	> 100 µM
Cc1ccc(S(=O)(=O)NC(=O)N[C@@H](Cc2cnc[nH]2)C(=O)O)cc1	> 100 µM
C[N+]12CCCCC1C(CN1C(=O)Cc3c4ccccc4c(c4ccccc34)CC1=O)CCC2 (stereo not drawn)	> 100 µM
